Would you mind telling me the reported %Inh of each entry?
# Test system: PLK1;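 also: KINOMEscan kinase panel screen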
# CONDITION DESCRIPTION: concentration: 1 μM, replicates: in singlicate; n = 1

**Q:** Record request: %Inh value, item C[C@@H](Oc1cc(-n2cnc3ccc(NC(=O)NC(C)(C)C)cc32)sc1C(N)=O)c1ccccc1Cl
**A:** 99.9%

**Q:** Record request: %Inh value, item Cl.Oc1cccc(Nc2ccnc3cc(-c4ccncc4)ccc23)c1
**A:** 30%

**Q:** Record request: %Inh value, item Cc1cn2c(=O)cc(N3CCOCC3)nc2n1Cc1cccc(Cl)c1Cl
**A:** 24%

**Q:** Record request: %Inh value, item Cc1nnc(-c2ccc(C)c(-c3ccc(C(=O)Nc4ccc(NS(C)(=O)=O)cc4)cc3)c2)o1
**A:** 0%

**Q:** Record request: %Inh value, item Cn1ccc2ncnc(Oc3ccc(NC(=O)Nc4ccncc4)c(Cl)c3)c21
**A:** 0%

**Q:** Record request: %Inh value, item [2H]C([2H])(c1cccc(C(F)(F)F)c1C)n1ccn2c(=O)nc(N3CCOCC3)cc12
**A:** 0%

**Q:** Record request: %Inh value, item c1ccc(-c2cc(-c3c[nH]nc3-c3ccccn3)ccn2)cc1
**A:** 0%

**Q:** Record request: %Inh value, item CN(C(=O)c1ccc(-c2cc(-c3c[nH]nc3-c3ccccn3)ccn2)cc1)C1CCOCC1
**A:** 0%

**Q:** Record request: %Inh value, item O=c1cc(N2CCOCC2)nc2n(Cc3cccc(Cl)c3Cl)c(C3CC3)nn12
**A:** 0%

**Q:** Record request: %Inh value, item Cn1cc(-c2ccc3c(c2)CCN3C(=O)Cc2ccccc2Cl)c2c(N)ncnc21
**A:** 15%

**Q:** Record request: %Inh value, item CCn1cnc2c(N)ncnc21
**A:** 0%

**Q:** Record request: %Inh value, item CC(C)Oc1ccc2c(-c3ccnc(Nc4ccc(N5CCN(C)CC5)cc4)n3)cnn2n1
**A:** 25%
